test: Volume of distribution at steady state in dog at 1 mg/kg, iv; type: ADME, organism-based, Canis lupus familiaris; conditions: in vivo, read-out: Vdss
Label rule, in plain words: Vd of 1 L/kg and up is 1 (yes), under 1 L/kg is 0 (no).

Field: example entries. Status: answers known.
- sample_smiles: "C[C@H](Nc1nc(N)nc(N)c1C#N)c1nc2c(F)ccc(Cl)c2c(=O)n1-c1cncc(F)c1"
  assigned_class: "0 (no)"
- sample_smiles: "C[C@H](Nc1nc(N)nc(N)c1C#N)c1nc2c(F)ccc(Cl)c2c(=O)n1-c1cccnc1"
  assigned_class: "0 (no)"
- sample_smiles: "CC[C@H](Nc1nc(N)nc(N)c1C#N)c1nc2c(F)ccc(Cl)c2c(=O)n1-c1cccnc1"
  assigned_class: "0 (no)"

Input: Hi team, for C[C@H](Nc1nc(N)nc(N)c1C#N)c1nc2cccc(Cl)c2c(=O)n1-c1cccnc1 , is the recorded Vd at or above 1 L/kg?
Output: 0 (no)

Input: Decide: Vd of N#Cc1c(N)nc(N)nc1N[C@H](c1nc2c(F)ccc(Cl)c2c(=O)n1-c1cccnc1)C1CC1 >= 1 L/kg?
Output: 1 (yes)
